Recorded values, source paper PMC10746280.

system: S. Typhimurium SL1344 (sifB::gfp) in RAW 264.7 macrophages; assay: SAFIRE macrophage assay: intracellular bacterial load (GFP signal within macrophages); type: cell-based, Salmonella enterica serotype Typhimurium; settings: 5 uM compound; n=1; DMSO solvent control = 98, rifampicin 2 μg/mL = 65
Categorized via 5 uM Avg Antibacterial Score: lower segment (below 30), middle segment (30 to below 70), upper segment (70 or more)

Use these answered entries as a reference point.
{"columns": ["Compound", "Tested System", "Cat"],
 "data": [
  ["OC(COc1cc(Cl)cc(Cl)c1)CN1CCCCC1 (centres unmarked) [CU247]", "S. Typhimurium SL1344 (sifB::gfp) in RAW 264.7 macrophages", "upper segment"],
  ["N[C@H]1CC[C@@H](NCC(O)COc2ccc(Cl)c(Cl)c2)CC1 (some centres unmarked) [CU245]", "S. Typhimurium SL1344 (sifB::gfp) in RAW 264.7 macrophages", "middle segment"],
  ["N[C@@H]1CCN(C[C@H](O)COc2ccc(Cl)c(Cl)c2)C1 [CU237]", "S. Typhimurium SL1344 (sifB::gfp) in RAW 264.7 macrophages", "middle segment"],
  ["NC1CCCN(CC(O)COc2cc(Cl)cc(Cl)c2)CC1 (centres unmarked) [CU231]", "S. Typhimurium SL1344 (sifB::gfp) in RAW 264.7 macrophages", "lower segment"]
]}

Looking at N[C@H]1CCN(C[C@H](O)COc2ccc(Cl)c(Cl)c2)C1 [CU238] , which class would you pick?
middle segment

---

test system: RAW 264.7 macrophages; assay: SAFIRE macrophage assay: host toxicity (adherent macrophage count, morphology); assay type: cell-based; details: 25 uM
Measure Name: 25 uM Avg Cell # Score
Give bare numbers.

Answered examples (2):
{"columns": ["Compound", "Measure Name", "Recorded Result"],
 "data": [
  ["NC1CCN(CC(O)COc2cccc3ccccc23)CC1 (centres unmarked) [CU215]", "25 uM Avg Cell # Score", 17],
  ["OC(COc1ccc(Cl)c(Cl)c1)CN1CCC(Oc2ncccn2)CC1 (centres unmarked) [CU158]", "25 uM Avg Cell # Score", 103]
]}

// each compound listed below needs its 25 uM Avg Cell # Score
1. OC(COc1ccc(Cl)c(Cl)c1)CN1CCC2(CCO2)C1 (centres unmarked) [CU228]
2. OC(COc1ccc(F)cc1F)CN1CCC(Nc2nccc(C(F)(F)F)n2)CC1 (centres unmarked) [CU039]
3. O=C(O)C1CCN(CC(O)COc2ccc(Cl)c(Cl)c2)CC1 (centres unmarked) [CU073]
4. CC(=O)NC1CCN(CC(O)COc2ccc(Cl)c(Cl)c2)CC1 (centres unmarked) [CU063]
5. NC(=O)N1CCN(CC(O)COc2ccc(Cl)c(Cl)c2)CC1 (centres unmarked) [CU067]
6. OC(CNC1CCNCC1)COc1cc(Cl)cc(Cl)c1 (centres unmarked) [CU202]
7. OC(CNCc1ccc2c(c1)OC(F)(F)O2)COc1ccc(Cl)c(Cl)c1 (centres unmarked) [CU134]
8. CNC1CCN(C[C@@H](O)COc2ccc(Cl)c(Cl)c2)C1 (some centres unmarked) [CU163]

102
145
140
119
88
95
91
111

Provide 25 uM Avg Cell # Score values for the following items, in order.
1. OC(COc1ccccc1F)CN1CCC(Nc2nccc(C(F)(F)F)n2)CC1 (centres unmarked) [CU105]
2. OC(COc1ccc(Cl)cc1)CN1CCC(Nc2nccs2)CC1 (centres unmarked) [CU053]
3. NC1CCN(CC(O)COc2ccc(Cl)c(Cl)c2)C1 (centres unmarked) [CU032]
4. CN(C)C(=O)C1CCN(CC(O)COc2ccc(Cl)c(Cl)c2)CC1 (centres unmarked) [CU058]
5. OC(COc1ccc(Cl)c(Cl)c1)CN1CCN(C2CC2)CC1 (centres unmarked) [CU182]
6. OC(COc1cccc(Cl)c1)CN1CCC(Nc2nccc(C(F)(F)F)n2)C1 (centres unmarked) [CU085]
7. NCC1CCN(CC(O)COc2cc(Cl)cc(Cl)c2)CC1 (centres unmarked) [CU208]

1. 98
2. 140
3. 95
4. 81
5. 101
6. 33
7. 15

For each of the compounds below, state 25 uM Avg Cell # Score.
1. NC1CCN(CC(O)COc2ccc(F)c(F)c2)C1 (centres unmarked) [CU172]
2. NC1CCN(CC(O)COc2ccc(F)c(F)c2)CC1 (centres unmarked) [CU171]
3. OC(COc1ccc(Cl)cc1)CN1CCC(NC2CC2)C1 (centres unmarked) [CU140]
4. OC(COc1ccc2cc[nH]c2c1)CN1CCC(Nc2nccc(C(F)(F)F)n2)CC1 (centres unmarked) [CU117]
5. OC(CNC1CCNCC1)COc1ccc(Cl)cc1 (centres unmarked) [CU198]
6. OC(COc1ccc(Cl)cc1Cl)CN1CCC(Nc2nccc(C(F)(F)F)n2)CC1 (centres unmarked) [CU038]

1. 103
2. 96
3. 130
4. 74
5. 110
6. 181

// each compound listed below needs its 25 uM Avg Cell # Score
1. OC(COc1ccccc1)CN1CCC(Nc2nccs2)CC1 (centres unmarked) [CU052]
2. NC1CCN(CC(O)COc2cc(Cl)cc(Cl)c2)CC1 (centres unmarked) [CU191]

1. 165
2. 15

---

test system: RAW 264.7 macrophages; assay: SAFIRE macrophage assay: host toxicity (adherent macrophage count, morphology); assay type: cell-based; details: 5 uM
Would you mind telling me the reported 5 uM Avg Cell # Score of each entry?
One number for each entry.

{"columns": ["Molecule", "Tested System", "Recorded Result"],
 "data": [
  ["N#Cc1ccc(OCC(O)CN2CCC(N)C2)cc1 (stereo not shown)", "RAW 264.7 macrophages", 99],
  ["CNC1CCN(CC(O)COc2ccc(F)c(F)c2)C1 (stereo not shown)", "RAW 264.7 macrophages", 102],
  ["O=C(O)C1CCN(CC(O)COc2ccc(Cl)c(Cl)c2)CC1 (stereo not shown)", "RAW 264.7 macrophages", 100]
]}

Moving on to the next molecule.
Under RAW 264.7 macrophages: 5 uM Avg Cell # Score value of OC1CCN(CC(O)COc2ccc(Cl)c(Cl)c2)CC1 (stereo not shown) ?
98

---

system: S. Typhimurium SL1344 (sifB::gfp) in RAW 264.7 macrophages; test: SAFIRE macrophage assay: intracellular bacterial load (GFP signal within macrophages); format: cell-based, Salmonella enterica serotype Typhimurium; details: 25 uM; 'Toxic' given instead of a score
Measure Name: 25 uM Avg Antibacterial Score

Examples from the recorded data:
{"columns": ["Compound", "Tested System", "25 uM Avg Antibacterial Score"],
 "data": [
  ["Cc1ccc(Sc2cccc3nc(N)nc(N)c23)cc1 [EPM43]", "S. Typhimurium SL1344 (sifB::gfp) in RAW 264.7 macrophages", "Toxic"],
  ["NC1CCN(CC(O)COc2ccc3ccccc3c2)CC1 (stereo not drawn) [CU214]", "S. Typhimurium SL1344 (sifB::gfp) in RAW 264.7 macrophages", "Toxic"],
  ["OC(COc1ccc(Cl)c(Cl)c1)CN1Cc2ccccc2C1 (stereo not drawn) [CU136]", "S. Typhimurium SL1344 (sifB::gfp) in RAW 264.7 macrophages", 60],
  ["COC(=O)c1ccc(OCC(O)CN2CCC(Nc3nccc(C(F)(F)F)n3)CC2)cc1 (stereo not drawn) [CU075]", "S. Typhimurium SL1344 (sifB::gfp) in RAW 264.7 macrophages", "Toxic"],
  ["NCC1CCN(CC(O)COc2cc(Cl)cc(Cl)c2)CC1 (stereo not drawn) [CU208]", "S. Typhimurium SL1344 (sifB::gfp) in RAW 264.7 macrophages", "Toxic"]
]}

Note: attention shifts to another entry.
25 uM Avg Antibacterial Score for NC1CCN(CC(O)COc2ccc(Cl)c(Cl)c2)CC1 (stereo not drawn) [CU173] ?
30

---

system: S. Typhimurium SL1344 (sifB::gfp) in RAW 264.7 macrophages; test: SAFIRE macrophage assay: intracellular bacterial load (GFP signal within macrophages); assay type: cell-based, Salmonella enterica serotype Typhimurium; settings: 25 uM; 'Toxic' given instead of a score

{"columns": ["Compound", "Tested System", "25 uM Avg Antibacterial Score"],
 "data": [
  ["CC(=O)N(CCNc1nccc(C(F)(F)F)n1)CC(O)COc1ccc(Cl)c(Cl)c1 (stereo not drawn)", "S. Typhimurium SL1344 (sifB::gfp) in RAW 264.7 macrophages", "Toxic"],
  ["OC(COc1ccc(Cl)c(Cl)c1)CN1CCC(Nc2nccc(C(F)(F)F)n2)C1 (stereo not drawn)", "S. Typhimurium SL1344 (sifB::gfp) in RAW 264.7 macrophages", "Toxic"],
  ["OC(COc1ccc(Cl)cc1Br)CN1CCC(Nc2nccc(C(F)(F)F)n2)CC1 (stereo not drawn)", "S. Typhimurium SL1344 (sifB::gfp) in RAW 264.7 macrophages", "Toxic"]
]}
